System: DC2.4 cells
Experiment: In vitro transfection of DC2.4 cells with EGFP mRNA LNP preparation (flow cytometry)
Assay type: cell-based, mouse
Details: DC2.4 cells, EGFP mRNA LNP, 200 ng mRNA per well, flow cytometry
Field 'label' (enum: T / F). Set to T when Cell Viability is strictly under 90%; else F.

Use the examples below as a reference point.
COMPOUND	QUALITATIVE LABEL
CCCCCCCCCCC(O)CN(CCOCCOCCN(CCOCCOCCN(CC(O)CCCCCCCCCC)CC(O)CCCCCCCCCC)CCN1CCN(CCOCCOCCN(CC(O)CCCCCCCCCC)CC(O)CCCCCCCCCC)CC1)CC(O)CCCCCCCCCC (stereo not drawn)	F
CCCCCCCCCCCCC(O)CN(CCN(CCN1CCN(C)CC1)CCN(CC(O)CCCCCCCCCCCC)CC(O)CCCCCCCCCCCC)CC(O)CCCCCCCCCCCC (stereo not drawn)	F
CCCCCCCCCCC(O)CN(CCOCCN(CCOCCN(CC(O)CCCCCCCCCC)CC(O)CCCCCCCCCC)CCN1CCN(CCOCCN(CC(O)CCCCCCCCCC)CC(O)CCCCCCCCCC)CC1)CC(O)CCCCCCCCCC (stereo not drawn)	T
CCCCCCCCCCCCC(O)CN(CCOCCOCCN(CCOCCOCCN(CC(O)CCCCCCCCCCCC)CC(O)CCCCCCCCCCCC)CCN1CCN(C)CC1)CC(O)CCCCCCCCCCCC (stereo not drawn)	F
CCCCCCCCCCCCCCC(O)CN(CCOCCN(CCOCCN(CC(O)CCCCCCCCCCCCCC)CC(O)CCCCCCCCCCCCCC)CCN1CCN(C)CC1)CC(O)CCCCCCCCCCCCCC (stereo not drawn)	F

Could you now consider this next compound?
Input CCCCCCCCCCCCC(O)CN(CCN(CCN1CCN(CCO)CC1)CCN(CC(O)CCCCCCCCCCCC)CC(O)CCCCCCCCCCCC)CC(O)CCCCCCCCCCCC (stereo not drawn) ; condition: Cell Viability strictly below 90%. Does it hold?
F
